Tested on: Vero
Test: Toxicity level was reported.
Format: functional, Chlorocebus sabaeus
ATTRIBUTE MEASURED: Toxic level (mM)
Record the value in mM, omitting the unit from your answer.

Examples with their reported Toxic level follow.
compound="COc1nc2c(c(Br)nn2C2O[C@H](CO)[C@@H](O)[C@H]2O)c(=O)[nH]1 (stereo partly specified)" readout_value=2.5
compound=Oc1[nH]c(Br)nc2nncc1-2 readout_value=1.6

(Q) What is its Toxic level for Vero? Entry: Nc1nc2c(c(Br)nn2C2O[C@H](CO)[C@@H](O)[C@H]2O)c(=O)[nH]1 (stereo partly specified)
(A) 1.6

---

Tested on: L1210
Assay: In vitro inhibitory dose against L1210 leukemia cells was evaluated.
Type: functional
Details: Mus musculus, read-out: ID50 (the source's name)
ATTRIBUTE MEASURED: IC50 (µM)
Record the value in µM, omitting the unit from your answer.

molecule="Nc1nc2c(c(Br)nn2C2O[C@H](CO)[C@@H](O)[C@H]2O)c(=O)[nH]1 (some centres not stated)" readout_value=36

Here's the next entry for you.
(Q) Any idea what its IC50 is? The molecule is N#Cc1nn(C2O[C@H](CO)[C@@H](O)[C@H]2O)c2nc(N)[nH]c(=O)c12 (some centres not stated)
(A) 22
